# System: doxorubicin resistant human ovarian cancer cells (A2780/DX5)
# MEASUREMENT NOTES: SRB cytotoxicity assay, inhibition of cell growth, A2780/DX5
# Format: cell-based
# EXPERIMENTAL CONDITIONS: A2780/DX5; 2 hour treatment, SRB assay at 5 days; average of Test 1 and Test 2; read-out: IC50 (nM) A2780/DX5, Average
REPORTED METRIC: IC50 (nM)
Express the result in nM but write the number alone.

// query IC50 value for entry CC[C@@]1(O)C(=O)OCc2c1cc1n(c2=O)Cc2c-1nc1ccccc1c2CC[Si](C)(C)C [Total Synthesis BNP1350] 11.8

###

# Test system: Wild type human ovarian cancer cells (A2780/WT)
# MEASUREMENT NOTES: SRB cytotoxicity assay, inhibition of cell growth, A2780/WT
# Type: cell-based
# EXPERIMENTAL CONDITIONS: 2 hour treatment, SRB assay at 5 days, Test 2, listed as Natural Product BNP1350, read-out: IC50 (nM) A2780/WT, Test 2
REPORTED METRIC: IC50 (nM)
Express the result in nM but write the number alone.

// query IC50 value for entry CC[C@@]1(O)C(=O)OCc2c1cc1n(c2=O)Cc2c-1nc1ccccc1c2CC[Si](C)(C)C [Total Synthesis BNP1350] 5.4
